Measured values drawn from patent US9963442B2 for this set.

Tested on: barnyardgrass (Echinochloa crus-galli)
run description: Test A preemergence, directed soil spray
Type: in vivo
test conditions: 31 g ai/ha, approx. 10 days
Parameter Plant response rating (0 to 100 scale, 0 no effect, 100 complete control), Barnyardgrass: see the listing below.
assay readout: Plant response rating (0 to 100 scale, 0 no effect, 100 complete control), Barnyardgrass

> print(dat)
                               query.smiles  numeric.result
1     O=c1cccc(Oc2ncc(Cl)cn2)n1-c1ccc(F)cn1               0
2    O=c1cccc(Oc2ncc(Cl)cn2)n1-c1ccc(Cl)cn1               0
3     O=c1cccc(Oc2ncc(Cl)cn2)n1-c1ncc(F)cn1               0
4    O=c1cccc(Oc2ncc(Cl)cn2)n1-c1ncc(Cl)cn1              20
5  O=c1cccc(Oc2ncc(Cl)cn2)n1-c1ccc(C(F)(F)F)cn1              20
6  O=c1cccc(Oc2ncc(Cl)cn2)n1-c1ccc(C(F)(F)F)cc1              50
7  O=c1cccc(Oc2ncc(Cl)cn2)n1-c1ncc(C(F)(F)F)cn1               0
